# measured.on: Chromo domain-containing protein 1 (Saccharomyces cerevisiae (strain ATCC 204508 / S288c) (Baker's yeast))
# test.description: ScCHD-1 Enzyme Inhibition Assay; note: in the data most compounds retested in dose-response had high values
# Type: functional
# Set-up: scale not given: direction of the effect not stated beside the values
# condition.label: 30 µM
value.type: Percent Effect (%)

molecule	endpoint.result
CC(C)Cc1cc(NC(=O)c2ccc[nH]2)n(C)n1	-7.26
CN1CCCC1CNC(=O)CCCOCc1ccccc1 (centres undefined)	6
CN(C)CC1CN(c2ccc(C#N)cn2)CCO1 (centres undefined)	-8.21
Cc1cc(C)n(C2CCCN(C(=O)c3cc(C4CC4)on3)C2)n1 (centres undefined)	-18.6
CC(NC1(CNC(=O)CC(C)(C)C)CCOCC1)c1ccccc1 (centres undefined)	-2.98
O=C(c1cccc(NCCO)c1)N1CCOCC1	-2.11
O=C(NC1COC2(CCN(Cc3ccccn3)CC2)C1)c1ccccn1 (centres undefined)	31.1
CC(C)n1cc(C(=O)N2Cc3ccccc3OC3(CCOCC3)C2)cn1	-13.3
N#Cc1ccc(OCCOc2ccccc2C(=O)N2CCOCC2)cc1	-2.37
COc1ccc(C(CO)NC(=O)Nc2cccc(C#N)c2)cc1 (centres undefined)	-9.96
Cc1nc(C2CCCCN2C(=O)c2ccccc2)ncc1C(=O)N(C)C (centres undefined)	0.34
COc1cc(CNCCc2cnn(C)c2)cc2c1OCCO2	-6.6
CS(=O)(=O)N1CCN(CC(O)COc2ccc(F)cc2)CC1 (centres undefined)	-16.1
O=C(CO)N1C[C@H]2CC[C@@H]1CN(C1Cc3ccccc3C1)C2	-4.67
O=C(Nc1nccs1)NC1CCN(Cc2ccccc2)C1 (centres undefined)	1.47
COc1cc(CNC(=O)C2CC(=O)N(C(C)C)C2)ccn1 (centres undefined)	-3.72
Nc1nccc(N2CCC(Cc3ccccc3Cl)(C(=O)O)CC2)n1	-7.9
Cc1ccc(S(=O)(=O)N2CCOc3ccccc32)cc1C(=O)O	-6.35
COc1cc(S(=O)(=O)N2CCCc3ccccc32)cc(C(=O)O)c1OC	-5.31
Cc1ccc(CNC(=O)N2CCN(Cc3ccsc3)CC2)n1C	-19.4
CCn1ccnc1CN1CCCN(C(=O)c2cccc(C#N)c2)CC1	1.21
Cc1cnn(C(C)C2CC2)c1NC(=O)c1cnccn1 (centres undefined)	2.37
O=C1CC[C@H]2CN(Cc3ccc(Cl)s3)CC[C@H]2N1CCc1c[nH]cn1	-0.239
O=C(C[C@@H]1COC[C@H]2CN(Cc3ccc(F)cc3)C[C@@H]12)N1CCCCO1	-5.03

---

Reported values of Percent Effect for individual entries
# measured.on: Sialic acid-binding Ig-like lectin 9 (Homo sapiens)
# test.description: Hs-Siglec9 ALPHAscreen SOP 20170721
# Set-up: scale not given: direction of the effect not stated beside the values
# condition.label: 10 µM

molecule	Percent Effect, %
Cc1c(O)oc(-c2ccc(Br)cc2)nc1=O	-12.4
Cc1nn(C)c(C)c1C1CCCN1Cc1cccc(C(N)=O)c1 (stereo unspecified)	12.2
O=C(C[C@@H]1COC[C@H]2CN(Cc3ccc(F)cc3)C[C@@H]12)N1CCCCO1	6.17
Cc1nc(CN2CCN(Cc3ccoc3)Cc3cccnc32)cs1	-2.07
CCC1=N[C@@]2(CC[C@@H]3CN(C(=O)NCc4ccccc4)C[C@@H]32)C(=O)N1C	-0.715
COc1ncccc1CNC(=O)NCCNC(=O)c1ccco1	-3.85
Cc1nn(C)cc1CN(C)Cc1cc2c(cc1OC(F)F)OCO2	-1.2
CC(=O)c1cccc(OCC(=O)NS(=O)(=O)c2ccc(C)s2)c1	9.9
Cn1ccc(C(=O)NC2CCC23CCN(Cc2cccnc2)CC3)c1 (stereo unspecified)	0.617
CN(Cc1ccsc1)C(=O)Nc1ccc(S(=O)(=O)N(C)C)cc1	-9.54
Cc1cc(C(=O)N2CCc3ncc(CN4CCOCC4)n3CC2)no1	0.585

---

Reported values of Percent Effect for individual entries
# measured.on: AMP-activated protein kinase, AMPK (Homo sapiens) (UniProt P54646+O43741+P54619+Q9UGJ0+Q9Y478+Q13131+Q9UGI9)
# test.description: AMP-dependent Kinase enzyme assay. An in vitro enzyme assay that detects ADP turnover that is directly proportional to AMPK activity. This uses naive AMPK that is activated during the assay with MK-8722
# Type: functional
# Parameters: scale not given: direction of the effect not stated beside the values
# condition.label: 30 µM
value.type: Percent Effect (%)

compound	value.type	endpoint.result
Cc1nccc(-c2cccc(NCC(=O)N3CCc4sccc4C3)c2)n1	Percent Effect	49.8
N#Cc1ccc(S(=O)(=O)NC(=O)C2CC2)c(C(F)(F)F)c1	Percent Effect	-10.9
CNc1nc(C)c(C(=O)N2CCCCC2CN2CCCCCC2)s1 (configuration not stated)	Percent Effect	-1.92
Cc1nc(C(C)(C)NC(=O)Nc2cccc(C#N)c2)no1	Percent Effect	3.16
CCn1ccnc1CN1CCN(CCOc2cccc(C#N)c2)CC1	Percent Effect	-6.98
Cc1cc(NC(=O)NCc2cccnc2OC(C)C)n(C)n1	Percent Effect	1.26
COc1ccc(CN2CCc3nc(C4CCCCN4C)ncc3C2)cc1 (configuration not stated)	Percent Effect	-0.187
CCCOc1cccc(CNC(=O)CN2CCN(C)CC2C)c1 (configuration not stated)	Percent Effect	-7.22
CCc1noc(C(C)N2CCN(c3ccc(C#N)cc3F)CC2)n1 (configuration not stated)	Percent Effect	2.6
Cc1ccccc1OCCC(=O)OC(C)C(=O)Nc1sccc1C(N)=O (configuration not stated)	Percent Effect	6.19
COCc1cccc(C(=O)N2CCCCC2c2nccs2)c1 (configuration not stated)	Percent Effect	-6.81
CNC(=O)C1(c2cnccn2)CCCN1C(=O)c1ccn(C)n1 (configuration not stated)	Percent Effect	3.23

---

# Test system: Trypanosoma cruzi
# test.description: Trypanosoma cruzi phosphomannomutase and mannose-1-phosphate guanylyltransferase assay
# Type: functional
# Parameters: scale not given: direction of the effect not stated beside the values
# condition.label: 10 µM
value.type: Percent Effect (%)

molecule	value.type	endpoint.result
O=C(COc1ccc2c(c1)CCC2)NS(=O)(=O)c1cncc(Br)c1	Percent Effect	9.3
COCCCNC(=O)CCn1nc(C)c2ccccc21	Percent Effect	-6.09
C1CC(CN2CCOCC3(CCN(C4CCOCC4)C3)C2)CCO1 (stereo not drawn)	Percent Effect	6.13
CCn1ccnc1CN1CCN(CC(O)Cn2cccn2)CC1 (stereo not drawn)	Percent Effect	-1.97
Cn1c(CNc2c(F)cccc2-n2cccn2)cc(=O)n(C)c1=O	Percent Effect	1.46
COc1cccc(S(=O)(=O)N2CCC(O)(CN(C)C)C2)c1 (stereo not drawn)	Percent Effect	-3.35
CNC(=O)[C@H]1C[C@@H]2CN(S(=O)(=O)c3ccccc3)C[C@@H]2N1C	Percent Effect	-0.492
Cn1cc(N2CC3(COCCN(Cc4ccsc4)C3)OCC2=O)cn1 (stereo not drawn)	Percent Effect	-1.46
COCC1CC2(CCN(Cc3cnn(C)c3)CC2)CN1c1ncccn1 (stereo not drawn)	Percent Effect	7.38
Cc1csc(N2CCN(CCc3ccccn3)CC2C)n1 (stereo not drawn)	Percent Effect	6.07
Cc1nccn1Cc1nnc(C2CCCN(Cc3cccnc3)C2)n1C (stereo not drawn)	Percent Effect	5.53
COCc1ccc(CN2CCC(O)(Cn3ccc4ncccc43)CC2)o1	Percent Effect	5.51
Cc1nccn1CC1CCCN1S(=O)(=O)Cc1ccccc1F (stereo not drawn)	Percent Effect	-1.79
Cc1nc(C)n(CC2CN(Cc3cccc4c3OCCO4)CCO2)n1 (stereo not drawn)	Percent Effect	3.46
CC(C)(C)c1nnc(CN2CCOC(Cn3cncn3)C2)o1 (stereo not drawn)	Percent Effect	9.67
Cc1cn2nc(N3CCCC3Cn3nc(C)cc3C)sc2n1 (stereo not drawn)	Percent Effect	1.74
NC(=O)c1ccc2c(c1)nc1n2CCN(Cc2ccccc2)C1	Percent Effect	3.8
Cc1csc(CNC(=O)Nc2cc(C(F)(F)F)c[nH]c2=O)n1	Percent Effect	6.71
CN(C)c1ccc(C(=O)NCC2(c3ccccc3)CCOCC2)cc1	Percent Effect	1.38
Cn1ccnc1CN1CCC2(CC1)CC(NC(=O)c1ccccn1)CO2 (stereo not drawn)	Percent Effect	1.28
COCCCN(C)Cc1nc2c(cnn2C)c(=O)[nH]1	Percent Effect	7.75
Cn1ccnc1CNC(=O)N1CCCC(Cc2nccn2C)C1 (stereo not drawn)	Percent Effect	-3.71
CCC(CNC(=O)c1ccc(=O)[nH]n1)N1CCc2ccccc2C1 (stereo not drawn)	Percent Effect	3.48
Cc1cc(CN(C)C(=O)NCc2cccc(N3CCCC3=O)c2)no1	Percent Effect	6.14
Cc1cc(C)c(CNC(=O)N(C)CC2CCCCO2)c(=O)[nH]1 (stereo not drawn)	Percent Effect	-8.84
O=C1CCCCN1c1cccc(CNC2CCCC2)c1	Percent Effect	2.06
CSc1ccccc1C(C(=O)O)N1CCN(Cc2ccccn2)CC1 (stereo not drawn)	Percent Effect	9.21
Cc1cc(C)n(CC2CCCCN2C(=O)c2cnn(C)c2)n1 (stereo not drawn)	Percent Effect	-5.22
CC(NC(=O)NCCCn1cncn1)c1ccccc1Cl (stereo not drawn)	Percent Effect	-7.63
Cc1cccc(CN2C[C@@H]3COC[C@]3(COc3ccc(C#N)cn3)C2)n1	Percent Effect	10.1
COC(=O)CC(c1cnn(C)c1)c1oc(C)cc(=O)c1O (stereo not drawn)	Percent Effect	-5.33
CCn1c(CN(C)C)nnc1C1CCN(c2ccnc(C)c2)CC1	Percent Effect	-1.85
Cc1ccccc1S(=O)(=O)N1CCCCC1c1ccn[nH]1 (stereo not drawn)	Percent Effect	-7.5
CC(=O)NCCc1ccc(C(=O)N2CCCC2c2cnn(C)c2)cc1 (stereo not drawn)	Percent Effect	2.89
O=C(NCc1ccco1)[C@H]1C[C@H]2OCC[C@H]2N(C(=O)c2ccco2)C1	Percent Effect	-3.09
CN(C(=O)NCc1ccncc1)C1CCN(c2ccccc2)C1=O (stereo not drawn)	Percent Effect	6.58
Cc1cc(C)n(Cc2cccc(C(=O)NCCN3CCOCC3)c2)n1	Percent Effect	-6.59
Cn1ccc(NC(=O)Cc2cccc(F)c2)n1	Percent Effect	3.71
O=C1O[C@@H]2CN(Cc3ccccc3)C[C@@H]2N1CCCN1CCOCC1	Percent Effect	-3.8
Cc1n[nH]c(C)c1C1COCCN1C(=O)c1cc(Cl)c[nH]1 (stereo not drawn)	Percent Effect	-3.47
COc1ccc(Cc2cccc(C3CCN(C)CC3)n2)cc1	Percent Effect	-0.395
CN(C)S(=O)(=O)N1CCC[C@]2(C[C@@H](Oc3ccccn3)CO2)C1	Percent Effect	-4.63
CCCc1cc(C(=O)N2CCCC2c2cccnc2)[nH]n1 (stereo not drawn)	Percent Effect	2.81
O=S(=O)(Nc1cnn(C2CCOCC2)c1)c1ccc(F)c(F)c1	Percent Effect	-5.03
CC(Oc1ccccc1C(F)(F)F)C(=O)NS(=O)(=O)C(C)C (stereo not drawn)	Percent Effect	4.88
COc1cccc(N2CCN(C(=O)[C@H](O)C3CCCCC3)CC2=O)c1	Percent Effect	2.32
CC(C)C(C)NC(=O)Nc1ccccc1CN1CCOCC1 (stereo not drawn)	Percent Effect	1.47
CC(=O)N1CCCC1c1cccc(Cc2ccc(F)cc2)n1 (stereo not drawn)	Percent Effect	5.91
